Target: STING (Homo sapiens)
Experiment: STING antagonist activity, cell-based ISG54 promoter-reporter luciferase measurement of IRF activity (THP-1 dual / RAW-ISG cells)
Conditions: Antagonist Activity of Exemplary Compounds; cell line and agonist not given; read-out: IC50
Method: THP-1 dual cells (InvivoGen) were cultured under 5% CO2 at 37° C. in RPMI containing 10% fetal bovine serum (FBS), 100 IU mL-1 penicillin and 100 μg mL-1 streptomycin. […] 50,000 cells seeded in a 96-well flat bottom white assay plate were treated with different concentrations (10 uM to 0.01 uM) of compounds for 1 h followed by STING induction with either 30 nM SB 11285 or 10 ug/mL 2′-3′ cGAMP. […] IC50 was calculated by plotting in Xlfit. […]
pIC50: −log10 of the molar value.
pIC50 values by entry

Example results:
| Compound | pIC50 |
| --- | --- |
| Cc1nc2nc(Cl)nc(Cl)c2n1CCCCCCCCCCCCCCCC(=O)O | 4.70 to 5.00 |
| Clc1nc(Cl)c2c(ncn2CCCCCCCCCCCCn2cnc3nc(Cl)nc(Cl)c32)n1 | 5.30 to 6.00 |
| COC(=O)CCCCCCCCCCCCCCCn1c(C#CC2CC2)nc2nc(Cl)nc(Cl)c21 | 5.30 to 6.00 |
| COC(=O)CCCCCCCCCCCCCCCn1ccc2c(Cl)nc(Cl)nc21 | < 4.70 |
| Clc1nc(Cl)c2c(ncn2C/C=C\Cn2cnc3nc(Cl)nc(Cl)c32)n1 | < 4.70 |

Now examine the next entry.
The compound "COC(=O)CCCCCCCCCCCCCCCn1cnc2c(Cl)nc(NC(C)=O)nc21" , when measured on STING (Homo sapiens), yielded pIC50 of < 4.70

* * *

target: STING (Homo sapiens); experiment: STING antagonist activity, cell-based ISG54 promoter-reporter luciferase measurement of IRF activity (THP-1 dual / RAW-ISG cells); conditions: Antagonist Activity of Exemplary Compounds; cell line and agonist not given; read-out: IC50
Measured property: IC50

| Molecule smiles | Reading |
| --- | --- |
| COC(=O)CCCCCCN(C)CCCCCCCCn1c(C)nc2nc(Cl)nc(S(=O)(=O)C(C)C)c21 | 1000 to 5000 nM |
| CCOC(=O)CCCCCCCCCCCCCCCn1c(C)nc2nc(Cl)nc(Cl)c21 | 1 to 1000 nM |
| O=C(O)CCCCCCCCCCCCCCCn1cnc2nc(Cl)nc(Cl)c21 | 1000 to 5000 nM |

Consider "Cc1nc2nc(Cl)nc(S(=O)(=O)C(C)C)c2n1CCCCCCCCCCCCCCCC(=O)O" . Its measured IC50 is 1 to 1000 nM

* * *

target: STING (Homo sapiens); assay: STING antagonist activity, cell-based ISG54 promoter-reporter luciferase measurement of IRF activity (THP-1 dual / RAW-ISG cells); settings: Antagonist Activity of Exemplary Compounds; cell line and agonist not given; read-out: IC50
IC50 overview

Examples from the recorded data:
| Compound | IC50 |
| --- | --- |
| COC(=O)CCCCn1c(C)nc2nc(Cl)nc(Cl)c21 [Compound 60] | 5 to 10 µM |
| Cc1nc2nc(Cl)nc(Cl)c2n1CCCCCCCCCCCCCCCCP(=O)(O)O [Compound 110] | > 20 µM |
| OCCOCCOCCOCCn1cnc2nc(Cl)nc(Cl)c21 [Compound 48] | 1 to 5 µM |

Cc1nc2nc(Cl)nc(Cl)c2n1CCCCCCCCCCN1CCN(C)CC1 [Compound 113] yielded IC50 of 1 to 5 µM

// field: IC50; key: CCOCCOCCOC(=O)CCCCCCCCCCCCCCCn1c(C)nc2nc(Cl)nc(Cl)c21 [Compound 99] ; value = 1 to 5 µM

* * *

biological target: STING (Homo sapiens, UniProt Q86WV6); assay: STING antagonist activity, cell-based ISG54 promoter-reporter luciferase measurement of IRF activity (THP-1 dual / RAW-ISG cells); settings: Antagonist Activity of Exemplary Compounds; cell line and agonist not given; read-out: IC50
Sequence (Q86WV6 whole entry): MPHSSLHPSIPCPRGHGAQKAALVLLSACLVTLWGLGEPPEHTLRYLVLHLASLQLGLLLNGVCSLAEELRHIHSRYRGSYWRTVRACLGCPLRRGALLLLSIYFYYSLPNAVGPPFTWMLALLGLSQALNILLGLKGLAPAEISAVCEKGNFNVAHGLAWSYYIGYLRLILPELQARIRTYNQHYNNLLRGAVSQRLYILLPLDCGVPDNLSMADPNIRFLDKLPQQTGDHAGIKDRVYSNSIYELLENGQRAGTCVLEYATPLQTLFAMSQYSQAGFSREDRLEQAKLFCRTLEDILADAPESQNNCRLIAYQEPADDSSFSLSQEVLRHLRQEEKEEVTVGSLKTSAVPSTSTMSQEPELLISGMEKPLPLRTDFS
pIC50: −log10 of the molar value.
Measured property: pIC50

| Compound | Measured property | Reading |
| --- | --- | --- |
| Cc1nc2nc(Cl)nc(S(=O)(=O)C(C)C)c2n1CCCCCCCCCCCCCCCC(=O)OC[C@H](O)CO | pIC50 | 5.30 to 6.00 |
| CNc1nc(Cl)nc2ncn(CCCCCCCCCCCCCCCC(=O)OC)c12 | pIC50 | < 4.70 |
| COC(=O)CCCN1CCN(CCCCCCn2c(C)nc3nc(Cl)nc(Cl)c32)CC1 | pIC50 | 5.30 to 6.00 |
| CCCCCCCCCCCCCCCCn1c(C)nc2nc(Cl)nc(Cl)c21 | pIC50 | 6.00 to 9.00 |
| COC(=O)CCCCCCCCCCCCCCCn1c(CO)nc2nc(Cl)nc(S(=O)(=O)C(C)C)c21 | pIC50 | 6.00 to 9.00 |
| CNC(=O)CCCCCCCCCCCCCCCn1c(C)nc2nc(Cl)nc(S(=O)(=O)C(C)C)c21 | pIC50 | 6.00 to 9.00 |
| CCCCCCCCC(C(=O)OCC)n1cnc2nc(Cl)nc(Cl)c21 (centres unmarked) | pIC50 | 5.30 to 6.00 |
| Cc1nc2nc(Cl)nc(S(=O)(=O)C(C)C)c2n1CCCCCCCCCCN1CCOCC1 | pIC50 | 5.30 to 6.00 |
| Cc1nc2nc(Cl)nc(S(=O)(=O)C(C)C)c2n1CCCCCCCCCCCCCCCc1nnnn1C | pIC50 | 6.00 to 9.00 |
| COC(=O)CCCCCCCCCCCCCCCn1c(C)nc2nc(Cl)nc(S(=O)(=O)CCN)c21 | pIC50 | 5.30 to 6.00 |

Quick note, pIC50 for "[2H]C([2H])([2H])OC(=O)CCCCCCCCCCCCCCCn1c(C)nc2nc(Cl)nc(S(=O)(=O)C(C)C)c21" landed at 6.00 to 9.00

* * *

target: STING (Homo sapiens, UniProt Q86WV6); experiment: STING antagonist activity, cell-based ISG54 promoter-reporter luciferase measurement of IRF activity (THP-1 dual / RAW-ISG cells); conditions: Antagonist Activity of Exemplary Compounds; cell line and agonist not given; read-out: IC50
Measured property: IC50

In the examples that follow, each entry is paired with its recorded IC50.
| Molecule smiles | Measured property | Reading |
| --- | --- | --- |
| Cc1nc2nc(Cl)nc(S(=O)(=O)C(C)C)c2n1CCCCCCCCCCCCCCCC(=O)OC[C@H]1COC(C)(C)O1 | IC50 | 0.001 to 1 µM |
| COC(=O)CCCCCCCCCCCCCCCn1c(-c2ccccc2)nc2nc(Cl)nc(Cl)c21 | IC50 | 1 to 5 µM |

Now examine the next entry.
Sample "CC(=O)N1CCC(Cn2cnc3nc(Cl)nc(Cl)c32)CC1" ; IC50 observed: 5 to 10 µM

* * *

molecular target: STING (Homo sapiens, UniProt Q86WV6); experiment: STING antagonist activity, cell-based ISG54 promoter-reporter luciferase measurement of IRF activity (THP-1 dual / RAW-ISG cells); conditions: Antagonist Activity of Exemplary Compounds; cell line and agonist not given
Catalogue of compounds with associated IC50

Worked set:
| Compound | IC50 |
| --- | --- |
| N#CCCOP(O)(=S)OCCCCCCCCCCCCCCCCn1cnc2nc(Cl)nc(Cl)c21 (stereo not shown) | 5 to 10 µM |
| CCN(CC)c1nc2nc(Cl)nc(Cl)c2n1CCCCCCCCCCCCCCCC(=O)OC | 5 to 10 µM |
| COC(=O)CCCCCCCCCCCCCCCn1cnc2nc(Cl)nc(Cl)c21 | 0.001 to 1 µM |

response.value for "CC(=O)OCCCCCCCCn1c(C)nc2nc(Cl)nc(Cl)c21" (field: IC50) = 1 to 5 µM

* * *

Overview of reported IC50 across a group of compounds:
molecular target: STING (Homo sapiens); experiment: STING antagonist activity, cell-based ISG54 promoter-reporter luciferase measurement of IRF activity (THP-1 dual / RAW-ISG cells); details: Antagonist Activity of Exemplary Compounds; cell line and agonist not given; read-out: IC50

// solved cases for IC50 follow
| Compound | IC50 |
| --- | --- |
| CCCCCCCCCCCCCCCCn1c(C)nc2nc(Cl)nc(S(=O)(=O)C(C)C)c21 | 1 to 1000 nM |
| CCCCCCCCCCCCCCC(C(=O)O)n1cnc2c(Cl)nc(Cl)nc21 (stereo not shown) | 10000 to 20000 nM |

In plain terms, "Cc1nc2c(Cl)nc(Cl)nc2n1C" has a documented IC50 of > 20000 nM

Record summary for "Cc1nc2nc(Cl)nc(S(=O)(=O)C(C)C)c2n1CCCCCCCCCCCCCCCCO" : reported IC50 = 1 to 1000 nM
